ASSAY PROTOCOL: in vitro
Parameters: Viability of infected HeLa host cells, resazurin conversion, bulk resorufin fluorescence relative to DMSO
CONDITION DESCRIPTION: human, hela cells; bulk resorufin, mean of 2
PROPERTY LABEL: viability at 28.5 h, 10 µM (%)

>>> assay_result("Cc1ccc(S(=O)(=O)Nc2cc(SCC(=O)O)c(O)c3ccccc23)cc1")
97.8
>>> assay_result("c1ccc(-c2nc3cc4ccccc4cc3[nH]2)nc1")
90.5
>>> assay_result("CCC(Sc1nnc2c(n1)[nH]c1ccccc12)C(=O)N1c2ccccc2Sc2ccccc21 (centres unmarked)")
88.6
>>> assay_result("c1ccc(CNc2nnc(-c3ccccc3)s2)cc1")
104
>>> assay_result("CC(C)(CN)CN(Cc1c[nH]c(-c2ccccc2)n1)C(=O)Nc1ccc(C(C)(C)C)cc1 [CBK002462C]")
72.5
>>> assay_result("O=C(N/N=C/c1c(O)ccc2ccccc12)c1ccc(CO)nc1")
76.9
>>> assay_result("CC(C)(N)CNC(=O)c1cc(C(C)(C)C)nn1Cc1ccc(Cl)cc1Cl")
93.8
>>> assay_result("CCOc1ccc(OCC)c2c1n(C)c(SC)[n+]2C [CBK005720G]")
83.6
>>> assay_result("CC(C(=O)N1CCC2(CC1)NC(=O)c1ccccc1N2)(c1ccccc1)c1ccccc1")
101
>>> assay_result("CC(=O)Nc1ccc(S(=O)(=O)Nc2ccc(C(=O)Nc3ccc(F)cc3)cc2)cc1")
91.8
>>> assay_result("CCOc1ccsc1C(=O)NC1Cc2ccccc2C1")
93
